B1: RTP4 (parent)
chain: AFGWFRCSSCQRSWASAQVQILCH

# Variants of: B1
# procedure.summary: protein stability index of a GFP-peptide fusion (GPS, HEK-293T) (PSI 1-6); higher = more stable;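 also: lentivirally expressed fusions sorted by FACS into six bins by GFP to DsRed ratio, PSI derived from sequencing read proportions per bin multiplied by bin number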
# condition.label: c terminus: a fixed tail appended
Assign protein stability index to each entry below.

# protein stability index of S16T = 1.95

# protein stability index of A15S = 2.04

# protein stability index of W14H = 1.95
